- targetOfAssay: T1, Mmi1 USR-YTH (Schizosaccharomyces pombe, UniProt O74958 282-488)
- T1 sequence: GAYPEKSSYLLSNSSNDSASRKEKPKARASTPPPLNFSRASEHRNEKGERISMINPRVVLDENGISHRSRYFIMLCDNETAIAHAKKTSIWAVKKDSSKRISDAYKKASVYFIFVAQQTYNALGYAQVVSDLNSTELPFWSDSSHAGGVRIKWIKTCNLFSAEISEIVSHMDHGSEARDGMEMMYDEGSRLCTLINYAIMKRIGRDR
- runDescription: fluorescence polarization; 150 mM NaCl; FP: 10 mM TAPS pH 8.2, 2 mM PIPES, 50 or 150 mM NaCl, 0.5 mM MgAc, 0.1 mM TCEP, 0.01% Brij-35, room temperature, 0.1 nM RNA; EMSA: 20 mM HEPES pH 7.5, 100 mM NaCl (plus 30 mM from protein buffer), 1 mM MgAc, 0.1 mM TCEP, 5% glycerol, 50 nM RNA, 15 min; SwitchSENSE: 40 mM NaCl
- conditionInfo: protein: recombinant; tags: N-terminal His6, 3C-cleaved; label: 3'-6-carboxyfluorescein
pKd: −log10 of the molar value.
readoutLabel: pKd

- binder: "UCUUAAACCAGUCAC (ssRNA) [DSRshort (15-mer)]"
  numericReadout: 8.21
